experiment.summary: Cytotoxicity against african green monkey Vero cells incubated for 72 hrs by Sulphorhodamine assay
Assay type: toxicity, cell-based
condition.label: African green monkey (Chlorocebus sabaeus)
The label satisfied is reserved for IC50 at 72 h strictly under 90 µM; not satisfied covers values equal to or above it.

COc1cc2c(cc1OC)C(=O)C(Cc1ccc(CCC(=O)NO)cc1)C2 (stereo not given) ... satisfied
COc1ccc2c(c1)C/C(=C/c1ccc(/C=C/C(=O)NO)cc1)C2=O ... not satisfied
COc1cc2c(cc1OC)C(=O)/C(=C\c1ccc(/C=C/C(=O)NO)cc1)C2 ... not satisfied
CC/C(=C(\c1ccccc1)c1ccc(OCCN(C)C)cc1)c1ccccc1 [TAMOXIFEN] ... satisfied
COc1cc(C2/C(=C/c3ccc(C(=O)NO)cc3)C(=O)c3cc(OC)c(OC)c(OC)c32)cc(OC)c1OC (stereo not given) ... satisfied
COc1ccc2c(c1)CC(Cc1ccc(C(=O)NO)cc1)C2=O (stereo not given) ... satisfied

Item COc1cccc2c1C(=O)c1c(O)c3c(c(O)c1C2=O)C[C@@](O)(C(=O)CO)C[C@@H]3O[C@H]1C[C@H](N)[C@H](O)[C@H](C)O1 [DOXORUBICIN] : IC50 at 72 h beneath 90 µM, strictly?
satisfied

Then what about the molecule COc1cc(C2/C(=C/c3ccc(/C=C/C(=O)NO)cc3)C(=O)c3cc(OC)c(OC)c(OC)c32)cc(OC)c1OC (stereo not given) ?
not satisfied

Note, next up: COc1cc(C2/C(=C/c3ccc(/C=C/C(=O)NOC(C)=O)cc3)C(=O)c3cc(OC)c(OC)c(OC)c32)cc(OC)c1OC (stereo not given)
satisfied

====

Test system: K562
experiment.summary: Cytotoxicity against human K562 cells incubated for 72 hrs by Sulphorhodamine assay
Type: functional, cell-based
condition.label: K562, 72 h
Each record here notes measured IC50.
The reply should contain only the number, in µM.

COc1cc2c(cc1OC)C(=O)C(Cc1ccc(CCC(=O)NO)cc1)C2 (stereo not given) ... 30.4

Query the reported IC50 for K562; item: COc1ccc2c(c1)CC(Cc1ccc(CCC(=O)NO)cc1)C2=O (stereo not given)
61.8

Same question for COc1cc(C2/C(=C/c3ccc(OCCCC(=O)NO)cc3)C(=O)c3cc(OC)c(OC)c(OC)c32)cc(OC)c1OC (stereo not given) please.
1.66

What would you report for COc1ccc2c(c1)CC(Cc1ccc(C(=O)NO)cc1)C2=O (stereo not given) ?
18.6

Also need COc1cc(C2c3c(cc(OC)c(OC)c3OC)C(=O)C2Cc2ccc(C(=O)NO)cc2)cc(OC)c1OC (stereo not given) , thanks.
36.8

====

Species: Homo sapiens
experiment.summary: Selectivity ratio, ratio of inhibition of HDAC in human HeLa nuclear extract assessed as residual activity to inhibition of human recombinant HDAC6 assessed as residual activity
Parameter Ratio: see the listing below.

Consider the worked cases shown below.
COc1cc(C2/C(=C/c3ccc(OCCCC(=O)NO)cc3)C(=O)c3cc(OC)c(OC)c(OC)c32)cc(OC)c1OC (centres undefined) ... > 7
COc1cc(C2/C(=C/c3ccc(/C=C/C(=O)NO)cc3)C(=O)c3cc(OC)c(OC)c(OC)c32)cc(OC)c1OC (centres undefined) ... < 0.5
COc1ccc2c(c1)C/C(=C/c1ccc(/C=C/C(=O)NO)cc1)C2=O ... > 7
COc1ccc2c(c1)C/C(=C/c1ccc(/C=C/C(=O)NOCc3ccccc3)cc1)C2=O ... 2.5
COc1cc2c(cc1OC)C(=O)/C(=C\c1ccc(/C=C/C(=O)NOCc3ccccc3)cc1)C2 ... 2.5
COc1ccc2c(c1)C/C(=C/c1ccc(C(=O)NOCc3ccccc3)cc1)C2=O ... > 7

Fill blank: measured Ratio of the molecule COc1cc(C2c3c(cc(OC)c(OC)c3OC)C(=O)C2Cc2ccc(CCC(=O)NO)cc2)cc(OC)c1OC (centres undefined) is ____.
2.5

Okay, and COc1cc2c(cc1OC)C(=O)/C(=C\c1ccc(C(=O)NO)cc1)C2 ?
> 7
